Origin of values: ChEMBL document CHEMBL1150001

molecular target: Muscarinic acetylcholine receptor M1 (Homo sapiens); conditions: CHO; at 100 µM
Description: Evaluated for its HMPA (human muscarinic inositol phosphate accumulation) activity measured in CHO cells expressing Muscarinic acetylcholine receptor M1 compound run at 100 uM
readout.name: CCh (%)
# unit: % | format: bare number

// below: answered compounds
compound="CCCO/N=C1\\CN2CCC1C2 (stereo not given)" endpoint_result=44
compound="C#CCO/N=C1\\CN2CCC1C2 (stereo not given)" endpoint_result=104
compound="CCC#CCO/N=C1\\CN2CCC1C2 (stereo not given)" endpoint_result=72
compound=C[N+](C)(C)CC#CCOC(=O)Nc1cccc(Cl)c1.[Cl-] endpoint_result=57
compound="CC#CCO/N=C1\\CN2CCC1C2 (stereo not given)" endpoint_result=63

Bench note: what CCh did C#CCC#CCO/N=C1\CN2CCC1C2 (stereo not given) show?
79

Which CCh value belongs to C(#Cc1ccccc1)CO/N=C1\CN2CCC1C2 (stereo not given) ?
76

Could you share which CCh value was measured for CC#CCC#CCO/N=C1\CN2CCC1C2 (stereo not given) ?
81

GET /values?readout=CCh&item= C#CCC#CCC#CCO/N=C1\CN2CCC1C2 (stereo not given)
50

If you can, please state the reported CCh value of Nc1noc(C2CN3CCC2C3)n1 (stereo not given) .
293
